- Test system: SW-620
- assay: NCI tumour cell line growth inhibition, 48 h
The source made the active and inactive calls. No stated cut-off is given here; in the data, active = GI50 up to about 1.1 µM and inactive = higher.
Returns: one label drawn from TRUE (active), FALSE (inactive)

{"compound": "O=C(CCC(=O)Nc1ccc(Cl)c(Cl)c1)CC(=O)c1ccc(Br)cc1", "target_of_assay": "SW-620", "category_label": "FALSE"}
{"compound": "O=C(Cc1nc2ccccc2o1)C(=O)Nc1ccc(Cl)cc1Cl", "target_of_assay": "SW-620", "category_label": "FALSE"}
{"compound": "COC1=CC(O)(CC(N)=O)c2ccccc2C1=O (configuration not stated)", "target_of_assay": "SW-620", "category_label": "FALSE"}

Outcome logged for NC1C2C=CC(C2)C1C(=O)O (configuration not stated) in this assay:
FALSE

State the result this test recorded for Cc1cc2c(c(/C=N/c3ccc([N+](=O)[O-])cc3)c1)OC1(C=C2)Oc2ccccc2C(=O)N1C (configuration not stated) .
FALSE

State the result this test recorded for CN(C)CC1CCC/C1=N\O (configuration not stated) .
FALSE

GET /call?item= "CC(C)(C)NC(=O)NC12CC3CC(CC(F)(C3)C1)C2" returns the recorded outcome of this test.
FALSE

Identify the outcome logged in this assay for the compound shown: "COc1cccc(CCN2CCN(CCCc3ccccc3)CC2)c1"
FALSE

###

- Test system: K562
- assay: NCI tumour cell line growth inhibition, 48 h
Activity calls are given as the source filed them. Cut-off read from the data, not from the text of the source: active = GI50 up to about 1.1 µM and inactive = higher.
Can you answer with just one of these options? YES for active, NO for inactive

Please review the following examples before continuing.
{"compound": "CCOc1cc(NC(C)=O)ccc1C(=O)NN1C(=O)/C(=C/c2ccco2)N=C1c1ccccc1", "target_of_assay": "K562", "category_label": "NO"}
{"compound": "CCN(CC)CC/N=c1\\c2cc(OC)ccc2[nH]c2c([N+](=O)[O-])ccc(NCCN(CC)CC)c12", "target_of_assay": "K562", "category_label": "YES"}
{"compound": "N#CC1=C(N)Nc2nc3ccccc3n2C1c1ccccc1 (stereo unspecified)", "target_of_assay": "K562", "category_label": "NO"}

Any idea what this test logged for C/C=C/C=C/C1=NN(c2cccc(S(=O)(=O)O)c2)C2(C1)SCC(=O)N2c1nc2ccccc2s1 (stereo unspecified) ?
NO

# fetch the recorded call for CCOC(=O)CCC(C(=O)OCC)n1nnc2cc(Nc3c(C)[n+]([O-])c4ccc(Cl)cc4[n+]3[O-])ccc21 (stereo unspecified) here
NO

Assay outcome for "Cn1/c(=N\c2ccccc2[N+](=O)[O-])sc2ccccc21" : what was it?
NO

Write down the call the test reported for this compound. Item: "COc1ccc(/C=C/c2ccnc3ccccc23)cc1OC"
NO

Tell me the recorded outcome of this test for "COC(=O)c1nc(-c2ccc(Cl)c(Cl)c2)nc2ccc(Cl)cc12" .
NO

Called result for "CN(C)C(=O)NC(=S)N(C)C"
NO

Entry CCC1CN2CCc3cc(OC)c(OC)cc3C2CC1CC1c2cc(OC)c(OC)cc2CCN1C(=O)C1CCCN1C(=O)OCc1ccccc1 (stereo unspecified) : call = ?
NO

// return assay outcome for "CCN(CC)C(=S)SS(=O)(=O)c1ccc(N)cc1"
NO

Hi, sorry to bother you, what did the test record for CNC(=O)C(C)NC(=O)C(Cc1ccccc1)NC(=O)OC(C)(C)C (stereo unspecified) ?
NO

In this assay, the call recorded for "CCOc1cc(NC(C)=O)ccc1C(=O)NN1C(=O)/C(=C/c2ccc(Cl)cc2)N=C1c1ccccc1" was what?
NO

State the result this test recorded for "O=C(CCCN1CCc2[nH]c3cc(F)ccc3c2C1)c1ccc(F)cc1" .
NO
